Below, each of the compounds is paired with its reported cell viability value.
- Tested on: DFTD cell line T2 (05/2569)
- assay.procedure: cell viability, percent of DMSO control (CellTiter-Glo); higher = more viable cells
- reported.conditions: 0.0185 µM; 72 h
parameter: cell viability

{"columns": ["compound", "experimental.result"],
 "data": [
  ["COc1cc2ncnc(Nc3ccc(Cl)cc3F)c2cc1OC", "86.8%"],
  ["COc1cc2ncnc(Nc3ccc(F)c(Cl)c3)c2cc1NC(=O)/C=C/CN1CCCCC1", "95.2%"],
  ["C=CC(=O)N1CCC(Oc2cc3c(Nc4ccc(Cl)c(Cl)c4F)ncnc3cc2OC)CC1 [Poziotinib (HM781-36B)]", "49.6%"],
  ["COCCn1c2c([n+](Cc3cnccn3)c1C)C(=O)c1ccccc1C2=O.[Br-] [YM155]", "87.2%"]
]}
